Tested on: Haemophilus
ASSAY EXPLANATION: In vitro inhibitory activity against Haemophilus AmpS (43)
Format: functional
REPORTED ENDPOINT: MIC90 (µg/mL)

[
  {
    "COMPOUND": "CC[C@H]1OC(=O)[C@H](C)[C@@H](O[C@H]2C[C@@](C)(OC)[C@@H](O)[C@H](C)O2)[C@H](C)[C@@H](O[C@@H]2O[C@H](C)C[C@H](N(C)C)[C@H]2O)[C@](C)(O)C[C@@H](C)C(=O)[C@H](C)[C@@H](O)[C@]1(C)O [ERYTHROMYCIN]",
    "REPORTED ENDPOINT": "MIC90",
    "VALUE": 5
  },
  {
    "COMPOUND": "CC1(C)S[C@@H]2[C@H](NC(=O)[C@H](N)c3ccccc3)C(=O)N2[C@H]1C(=O)O [AMPICILLIN]",
    "REPORTED ENDPOINT": "MIC90",
    "VALUE": 0.6
  },
  {
    "COMPOUND": "CC[C@H]1OC(=O)[C@H](C)[C@@H](O[C@H]2C[C@@](C)(OC)[C@@H](O)[C@H](C)O2)[C@H](C)[C@@H](O[C@@H]2O[C@H](C)C[C@H](N(C)C)[C@H]2O)[C@](C)(O)C[C@@H](C)CN(C)[C@H](C)[C@@H](O)[C@]1(C)O [AZITHROMYCIN]",
    "REPORTED ENDPOINT": "MIC90",
    "VALUE": 1.2
  }
]

----------
Test system: Streptococcus pneumoniae
ASSAY EXPLANATION: In vitro inhibitory activity against Streptococcus pneumoniae (EryRi 030SJ5i)
Type: functional
Listing: MIC of selected compounds

[
  {
    "TEST SMILES": "CC[C@H]1OC(=O)[C@H](C)C(=O)[C@H](C)[C@@H](O[C@@H]2O[C@H](C)C[C@H](N(C)C)[C@H]2O)[C@](C)(OC)C[C@@H](C)/C(=N/OCOCCOC)[C@H](C)[C@@H](O)[C@]1(C)O",
    "MIC (µg/mL)": 10
  },
  {
    "TEST SMILES": "CC[C@H]1OC(=O)[C@H](C)C(=O)[C@H](C)[C@@H](O[C@@H]2O[C@H](C)C[C@H](N(C)C)[C@H]2O)[C@](C)(OC)C[C@@H](C)C(=O)[C@H](C)[C@H]2N(CCCCc3ccccc3)C(=O)O[C@]12C",
    "MIC (µg/mL)": 0.3
  },
  {
    "TEST SMILES": "CC[C@H]1OC(=O)[C@H](C)C(=O)[C@H](C)[C@@H](O[C@@H]2O[C@H](C)C[C@H](N(C)C)[C@H]2O)[C@](C)(OC)C[C@@H](C)/C(=N\\OCCNCCN(C)C)[C@H](C)[C@@H](O)[C@]1(C)O",
    "MIC (µg/mL)": 10
  },
  {
    "TEST SMILES": "CC[C@H]1OC(=O)[C@H](C)[C@@H](O[C@H]2C[C@@](C)(OC)[C@@H](O)[C@H](C)O2)[C@H](C)[C@@H](O[C@@H]2O[C@H](C)C[C@H](N(C)C)[C@H]2O)[C@](C)(OC)C[C@@H](C)C(=O)[C@H](C)[C@H]2N(CCCCc3ccccc3)C(=O)O[C@]12C",
    "MIC (µg/mL)": 1.2
  }
]
